Target: full-length beta-Catenin (Uniprot ID P35222) (Homo sapiens (Human)) (UniProt P35222)
Sequence (P35222 whole entry): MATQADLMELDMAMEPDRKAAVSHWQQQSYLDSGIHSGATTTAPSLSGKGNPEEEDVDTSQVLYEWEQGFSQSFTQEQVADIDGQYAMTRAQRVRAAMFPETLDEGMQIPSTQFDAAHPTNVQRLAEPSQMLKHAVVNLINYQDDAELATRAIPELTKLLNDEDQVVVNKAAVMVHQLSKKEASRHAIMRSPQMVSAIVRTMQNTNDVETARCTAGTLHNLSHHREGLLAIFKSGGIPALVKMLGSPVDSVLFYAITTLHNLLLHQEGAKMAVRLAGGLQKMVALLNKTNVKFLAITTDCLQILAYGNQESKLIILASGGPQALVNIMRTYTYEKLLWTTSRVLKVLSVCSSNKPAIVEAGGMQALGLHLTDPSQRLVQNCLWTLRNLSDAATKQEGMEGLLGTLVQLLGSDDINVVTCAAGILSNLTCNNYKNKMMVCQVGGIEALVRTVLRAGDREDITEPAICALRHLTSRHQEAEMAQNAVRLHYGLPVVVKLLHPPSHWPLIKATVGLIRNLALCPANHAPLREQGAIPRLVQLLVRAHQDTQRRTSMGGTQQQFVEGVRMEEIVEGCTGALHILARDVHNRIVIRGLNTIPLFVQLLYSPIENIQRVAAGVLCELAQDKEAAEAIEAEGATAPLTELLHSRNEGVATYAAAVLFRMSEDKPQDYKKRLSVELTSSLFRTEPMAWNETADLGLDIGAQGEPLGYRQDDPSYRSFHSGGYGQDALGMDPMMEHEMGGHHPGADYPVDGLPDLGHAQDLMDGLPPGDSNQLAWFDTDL
Test: fluorescence polarization competition; 10 nM full-length beta-catenin + 10 nM 5FAM-TCF4(10-53) probe
Starred links: 1 amine or outer side, 2 acyl side, 3 side chain; linkers in the order of their positions; H or OH if unused. Positions of bridges follow the written chain, without caps; N, C: chain ends. Non-standard residues stand in square brackets, D forms with d. Primed or numbered codes have the meaning given here. PyrS2″ = (S)-3-amino-1-((pent-4-en-1-yloxy)carbonyl)pyrrolidine-3-carboxylic acid (stapling residue), C=CCCCOC(=O)N1CC[C@@](N[*:1])(C(=O)[*:2])C1; B5(18) = 2,2-bis(4-pentenyl)glycine (2-amino-2-(pent-4-en-1-yl)hept-6-enoic acid), stitching residue, C=CCCCC(CCCC=C)(N[*:1])C(=O)[*:2]; B5(5) = 2,2-bis(4-pentenyl)glycine, 2-amino-2-(pent-4-en-1-yl)hept-6-enoic acid (stitching residue), C=CCCCC(CCCC=C)(N[*:1])C(=O)[*:2]; TfeGA = (S)-2-amino-3-((carboxymethyl)(2,2,2-trifluoroethyl)amino)propanoic acid, O=C([C@H](CN(CC(=O)[*:3])CC(F)(F)F)N[*:1])[*:2]; Phe(2-Cl) = N[C@@H](Cc1ccccc1Cl)C(=O)O; Bta = N[C@@H](Cc1csc2ccccc12)C(=O)O; αAllylPro = C=CC[C@@]1(C(=O)O)CCCN1; tBuAla = CC(C)(C)C[C@H](N)C(=O)O
Measure name: IC50 (nM)

1: Ac-[αAllylPro]D[tBuAla][B5(5)]D[TfeGA]AIFN[PyrS2″][Phe(2-Cl)][Bta]Q-NH2 (staple 1-4, 4-11) [I-1005]
2: Ac-[αAllylPro]D[tBuAla][B5(18)]D[TfeGA]KAFN[PyrS2″][Phe(2-Cl)][Bta]Q-NH2 (staple 1-4, 4-11) [I-1011]
3: Ac-[αAllylPro]D[tBuAla][B5(18)]DNAAFT[PyrS2″][Phe(2-Cl)][Bta]Q-NH2 (staple 1-4, 4-11) [I-1014]
**Query** Ascending by IC50, please. Answer with the labels in sequence, matching the requested order.
**Result** 2, 3, 1
(2: 5 nM, 3: 19 nM, 1: 42 nM)

meta.source: patent US20240116985A1
